# assay.text: Apparent volume of distribution in type 2 diabetic mellitus human at 270 mg, po administered as single dose
# Type: ADME, organism-based
# protocol.conditions: in vivo, read-out: Vz/F
attribute.measured: Vd/F (L)
Note: unit L is implicit; provide only the numeric part.

Q: Assign Vd/F to the following record: CC#C[C@@H](CC(=O)O)c1ccc(OCc2ccc(CN3CCCc4cccc(OC)c43)s2)cc1
Result: 244

====

This section presents compounds with their documented pKi values.
# study.target: Free fatty acid receptor 1 (Homo sapiens)
# Sequence (O14842 whole entry): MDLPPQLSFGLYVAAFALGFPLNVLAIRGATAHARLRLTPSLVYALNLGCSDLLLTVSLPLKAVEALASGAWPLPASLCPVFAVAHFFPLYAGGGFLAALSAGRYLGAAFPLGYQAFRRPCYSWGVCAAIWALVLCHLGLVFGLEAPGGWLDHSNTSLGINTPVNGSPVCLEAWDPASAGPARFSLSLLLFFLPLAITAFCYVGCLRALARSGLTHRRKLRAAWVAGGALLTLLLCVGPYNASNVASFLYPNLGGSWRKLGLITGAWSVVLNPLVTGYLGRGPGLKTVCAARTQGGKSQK
# assay.text: Displacement of [3H]-TAK-875 from human recombinant full-length GPR40 expressed in human HEK293 cell membrane incubated for 2 hrs by solid scintillation counting method
# Assay type: cell membranes
Please express pKi as -log10 of the molar concentration.

>  <smiles.input>
CC#C[C@@H](CC(=O)O)c1ccc(OCc2nc(C)c(CN3CCC4(C=Cc5ccccc54)CC3)s2)cc1

>  <pKi>
7.23

$$$$
>  <smiles.input>
CC#C[C@@H](CC(=O)O)c1ccc(OCc2ccc(CN3CCC4(C=Cc5ccccc54)CC3)c(F)c2)cc1

>  <pKi>
8.40

$$$$
>  <smiles.input>
CC#C[C@@H](CC(=O)O)c1ccc(OCc2ccc(CN3CCC4(C=Cc5ccccc54)CC3)s2)cc1

>  <pKi>
8.32

$$$$
>  <smiles.input>
CC#C[C@H](CC(=O)O)c1ccc(OCc2ccc(CN3CCC4(C=Cc5ccccc54)CC3)cc2)cc1

>  <pKi>
6.51

$$$$
>  <smiles.input>
CC#C[C@@H](CC(=O)O)c1ccc(OCc2ccc(CN3CCC4(CC3)CN(C)c3ccc(C(F)(F)F)cc34)cc2)cc1

>  <pKi>
8.57

$$$$
>  <smiles.input>
CC#C[C@@H](CC(=O)O)c1ccc(OCc2cc(C)c(CN3CCC4(C=Cc5ccccc54)CC3)s2)cc1

>  <pKi>
8.46

$$$$

Q: Assign pKi to the following record: CC#C[C@@H](CC(=O)O)c1ccc(OCc2ccc(CN3CCC4(CC3)CN(c3ccccc3)c3ccccc34)cc2)cc1
Result: 8.82

Q: Assign pKi to the following record: CC#C[C@@H](CC(=O)O)c1ccc(OCc2ccc(CN3CCC4(CC3)CN(C)c3ccc(OC)cc34)cc2)cc1
Result: 7.54

Q: Assign pKi to the following record: CC#C[C@@H](CC(=O)O)c1ccc(OCc2ccc(CN3CCC4(C=Cc5ccccc54)CC3)c(OC)c2)cc1
Result: 8.60

Q: Assign pKi to the following record: CC#C[C@@H](CC(=O)O)c1ccc(OCc2ccc(CN3CCC4(C=Cc5ccccc54)CC3)c(Cl)c2)cc1
Result: 8.82

Q: Assign pKi to the following record: CC#C[C@@H](CC(=O)O)c1ccc(OCc2sc(CN3CCC4(C=Cc5ccccc54)CC3)nc2C)cc1
Result: 7.00

Q: Assign pKi to the following record: CC#C[C@@H](CC(=O)O)c1ccc(OCc2ccc(CN3CCC4(CCc5ccccc54)CC3)cc2)cc1
Result: 8.34

Q: Assign pKi to the following record: O=C(O)C[C@@H](c1ccc(OCc2ccc3nc(-c4ccccc4)nn3c2)cc1)c1ccon1
Result: 7.10

Q: Assign pKi to the following record: CC#C[C@@H](CC(=O)O)c1ccc(OCc2ccc(CN3CCC4(CC3)CN(C)c3c(Cl)cccc34)cc2)cc1
Result: 8.46

Q: Assign pKi to the following record: CC#C[C@@H](CC(=O)O)c1ccc(OCc2ccc(CN3CCC4(C=Cc5ccccc54)CC3)cc2)cc1F
Result: 7.89

Q: Assign pKi to the following record: CC#C[C@H](CC(=O)O)c1ccc(OCc2ccc(CN3CCC4(C=Cc5ccccc54)CC3)cc2)cc1F
Result: 6.39

The reported numbers originate from ChEMBL document CHEMBL4765234.
